Test system: aorta rings
Assay: Vasorelaxant effect in vitro (phenylephrine-contracted aorta rings)
Settings: rabbit aorta rings, organ bath, phenylephrine contraction; read-out: IC50 (concentration needed to reduce the phenylephrine contraction by 50%)

| compound | readoutUnit | IC50 |
| --- | --- | --- |
| CCC1(C)C(=O)Nc2nc(-c3nn(Cc4ccccc4F)c4ncc(F)cc34)nnc21 (single isomer, unassigned) [Example 7-2] | nM | 185 |
| CC1(CC2CC2)C(=O)Nc2nc(-c3nn(Cc4ccccc4F)c4ncc(F)cc34)nnc21 (single isomer, unassigned) [Example 5-2] | nM | 661 |
| CC1(CC2CC2)C(=O)Nc2nc(-c3nn(Cc4ccccc4F)c4ncc(F)cc34)nnc21 (single isomer, unassigned) [Example 5-1] | nM | 321 |
| CCC1(C)C(=O)Nc2nc(-c3nn(Cc4ccccc4F)c4ncc(F)cc34)nnc21 (single isomer, unassigned) [Example 7-1] | nM | 59 |
